Measurement notes: fluconazole-exposed Candida albicans growth modulators – fluorescence, retest, confirmation (AID 2467)
Format: functional, cell-based
The source made the active and inactive calls. Rule as the data show it: actives have a measured EC50 and inactives only a lower limit.
Readout: EC50

# annotated cases, reported EC50 shown
COc1ccc(-c2cc(C3CCN(Cc4cccc(C(F)(F)F)c4)CC3)[nH]n2)cc1    > 38 µM (not active)
Cc1n[nH]c(-c2ccc(O)c(C)c2O)c1-c1cnn(-c2ccccc2)c1    > 38 µM (not active)
N=C(NOC(=O)N1c2ccccc2Sc2ccccc21)c1ccccc1    1.22 µM (active)
Cc1ccc(S(=O)(=O)NNC(=O)c2ccc(NC(=O)C3CC3)cc2)cc1    12.7 µM (active)
CCN(CC)c1cccc(OC2=NS(=O)(=O)c3ccccc32)c1    5.06 µM (active)

Next molecule, EC50 to be filled in.
Enquiry: Give a short answer stating reported EC50 for O=C(CN1CCN(S(=O)(=O)c2ccccc2)CC1)Nc1ccc2c(c1)CCC2 .
Return: > 38 µM (not active)
